- Tested on: Fibroblast
- PROTOCOL_NOTES: Multiplex assay against human fibroblast
- Assay type: toxicity, cell-based
- MEASUREMENT_CONDITIONS: 12 h, 1 µM, compound concentration 1 uM, replicate 2
# reported Population Apoptotic (%); entries follow
Write the number in % without appending the unit.

| COMPOUND | MEASUREMENT_UNITS | Population Apoptotic (%) |
| --- | --- | --- |
| CC(C)N1CCC(C)(C)c2cc(C#Cc3ccc(C(=O)O)cc3)ccc21 | % | 20 |
| COc1cc2c(Nc3ccc(NC(=O)c4ccccc4)cc3)ncnc2cc1OCCCN1CCOCC1 | % | 33 |
| COc1cc(N2CCC(N(C)C)CC2)ccc1Nc1ncc(Cl)c(Nc2ccccc2P(C)(C)=O)n1 | % | 42 |
| COc1ccc(NS(=O)(=O)c2sc3ccc(Cl)cc3c2C)cc1N1CCNCC1.Cl | % | 28 |
| CNC(=O)c1nn(C)c2c1C(C)(C)Cc1cnc(Nc3ccc(N4CCN(C)CC4)cc3)nc1-2 [MILCICLIB] | % | 100 |
| COc1cc2c(NC3CCN(C(C)C)CC3)nc(N3CCC(F)(F)CC3)nc2cc1OCCCN1CCCC1 | % | 30 |
| CNc1oc(-c2cccc3ccccc23)nc1C#N | % | 0 |

Let us examine a further case.
Please indicate Population Apoptotic (%) recorded for Cc1nc(Cc2cccc(C(F)(F)F)c2)sc1-c1ccc(C(N)=O)nc1 [TP-024n]
50
